Test: hepatitis C replication reporter changes, two-sided – Huh7 cells, luciferase reporter, HCV replication inhibitor project, primary screen (AID 1109);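 further: huh7 hepatoma cells harbouring a luciferase neomycin HCV replicon reporter; luciferase luminescence as measure of HCV replicon replication; test concentration not given here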
Conditions: Huh7 HCV replicon luciferase reporter, 48 h; higher = more signal
Cut-off -1 on z-score, inclusive. At or above means Satisfied; below means Not satisfied.

Solved cases (8 shown):
CCCN1C(=O)[C@@]2(Cc3ccccc3)N=C(c3ccc(OCCCO)cc3)O[C@H]2c2ccccc21 = Not satisfied
O=C1C2C=CC(C(O)c3ccccn3)N(Nc3ccccc3)C2C(=O)N1c1ccccc1 (stereo not given) = Satisfied
COCCOC(=O)N1C(=O)[C@@]2(c3ccccc31)[C@H](c1ccc(OCCO)cc1)N1[C@H](c3ccccc3)[C@H](c3ccccc3)OC(=O)[C@H]1[C@@H]2C(=O)NC[C@H](O)c1ccccc1 = Not satisfied
CCOC(=O)C[C@H]1[C@H](OC(=O)Cc2ccc3c(c2)OCO3)[C@@H](NC(=O)c2ccccc2)c2cc(OCCCO)ccc2N1C(=O)c1ccc2ccccc2n1 = Satisfied
C[C@]12C(=O)N(CCCO)[C@@H]3C(=O)N(c4ccc(Cl)cc4)CC=CC31O[C@@H]1/C=C\CCCOC(=O)C12 (stereo not given in full) = Satisfied
COC(=O)[C@H]1N=C(c2ccc(OCCCO)cc2)O[C@H]1c1ccccc1CN=[N+]=[N-] = Not satisfied
O=C1C2C=CC(C(O)c3cccc4ccccc34)N(Nc3ccccc3)C2C(=O)N1c1ccccc1 (stereo not given) = Not satisfied
COC(=O)[C@@]1(Cc2ccc(OC)cc2)[C@H]2c3cc(C(=O)N(C)C)n(Cc4cc(C)n(C)n4)c3C[C@H]2CN1C(=O)c1ccccc1 = Satisfied

Switching to the query record.
Entry [N-]=[N+]=Nc1ccccc1[C@@H]1OC(c2ccc(OCCCO)cc2)=N[C@]1(CCS(=O)(=O)c1ccccc1)C(=O)NCc1ccccc1 : is its z-score no less than -1?
Satisfied

* * *

Test system: Lefty1
Experiment: Lefty1 protein binding to printed compounds – biochemical, small-molecule microarray, 635/667 nm fluorescence, primary screen (AID 1139)
Conditions: fluorescence 635/667, higher = more signal
quantity: composite z-score
The answer should be a number; do not append a unit.

Known composite z-score results, listed for orientation:
COc1ccc(C#Cc2ccc3c(c2)[C@]2(C(=O)N3)[C@H](C(N)=O)[C@H]3C(=O)O[C@H](c4ccccc4)[C@H](c4ccccc4)N3[C@@H]2c2ccc(O)cc2)cc1 = 0.339
CC1C=C(CCCO)C=C(C(=O)OCCS(C)(=O)=O)C(C(=O)OCCS(C)(=O)=O)=CN1Cc1cccc(OC(F)(F)F)c1 (stereo not given) = -0.309
COCC(=C=CC[C@@H](O)c1ccccc1OCCO)C[C@@H](O)c1ccccn1 = 0.913

Proceed to the following item.
The reported value for CCOC(=O)C1=CC[C@@H](c2ccccc2)N(S(=O)(=O)c2ccc(C)cc2)[C@H]1C=C(C)C in terms of composite z-score is 0.811

* * *

Tested on: Inhibin beta A chain (activin A)
Experiment: small molecules binding activin A – biochemical, small-molecule microarray, 635 nm fluorescence scan, primary screen (AID 1107);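 further: mouse activin A protein probed at 4.33 µg/mL on printed slides; score merges bound-protein fluorescence near 667 nm with spot signal-to-noise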
Conditions: INHBA, higher = more signal
Reported composite z-score is given for each of the following compounds.
The answer should be a number; do not append a unit.

The reported value for C=CCC(OC(C)=O)[C@@H]1[C@@H](N(Cc2cccc3ccccc23)C(=O)Cc2ccc(F)cc2)c2cc(OCCCO)ccc2N1C(=O)Cc1ccc(OC)cc1 (some centres undefined) in terms of composite z-score is 1.25

The reported value for COC(=O)c1ccc(OC)c(/C=C\CC(CCc2ccccc2)OC(C)=O)c1 (centres undefined) in terms of composite z-score is 1.53

The reported value for C=CCNC(=O)[C@H]1[C@@H]2C(=O)O[C@@H](c3ccccc3)[C@@H](c3ccccc3)N2[C@@H](c2ccc(O)cc2)[C@]12C(=O)N(C(=O)OCCOC)c1ccc(C#CC3(O)CCCCCC3)cc12 in terms of composite z-score is 1.09

The reported value for O=C(Nc1cc(Br)ccc1C(=O)NCc1cccc(O)c1)c1ccccc1 in terms of composite z-score is -0.0621

The reported value for NCCCCCCNC(=O)[C@H]1C[C@H]2C(=O)N3CCC[C@H]3C(=O)N2[C@H]1c1ccc(O)cc1 in terms of composite z-score is 0.977

The reported value for COc1ccc(CCNC(=O)[C@@H]2c3ccccc3C(=O)N(Cc3ccccc3)[C@H]2c2ccc(CO)cc2)cc1 in terms of composite z-score is 0.309

The reported value for O=C1c2ccccc2[C@](Cc2ccccc2I)(C(=O)NC2CC2)[C@H](c2ccc(CO)cc2)N1Cc1ccccc1Cl in terms of composite z-score is 1.02

The reported value for Cc1cc(C)c(C(O)C2C=CC3C(=O)N(c4ccccc4)C(=O)C3N2Nc2ccccc2)c(C)c1 (centres undefined) in terms of composite z-score is 0.242

The reported value for [N-]=[N+]=NCc1ccccc1C[C@]1(C(=O)NCCN2CCOCC2)COC(c2ccc(OCCCO)cc2)=N1 in terms of composite z-score is 0.978

The reported value for COc1ccc([Si](C)(C)[C@@H]2[C@@H](CCO)O[C@]3(C(=O)N(Cc4ccccc4)c4ccc(N5C(=O)COc6ccccc65)cc43)[C@H]2C)cc1 in terms of composite z-score is 0.254

The reported value for COc1ccccc1CN1C(=O)c2ccccc2[C@](Cc2ccccc2I)(C(=O)NCCN2CCOCC2)[C@@H]1c1ccc(CO)cc1 in terms of composite z-score is 0.437

The reported value for N#Cc1ccc(NN2C(C(O)c3ccco3)C=CC3C(=O)N(c4ccccc4)C(=O)C32)cc1 (centres undefined) in terms of composite z-score is 0.921

The reported value for CCCC[C@H]1OB(O)C[C@H]2C1=C(COc1ccccc1)Cn1c(=O)n(-c3ccccc3)c(=O)n12 in terms of composite z-score is 0.54

The reported value for C[C@H]1NC(=O)C([C@@H](C)OCc2ccccc2)NC(=O)[C@@]23C(=O)N[C@@H](Cc4ccccc4)C2[C@H](C)[C@@]2(C)O[C@H]2C3/C=C/CC/C=C/CNC1=O (some centres undefined) in terms of composite z-score is 1.42

The reported value for CC1C=C(CCCO)C=C(C(=O)OCCS(C)(=O)=O)C(C(=O)OCCS(C)(=O)=O)=CN1Cc1cccc(OC(F)(F)F)c1 (centres undefined) in terms of composite z-score is 0.829

The reported value for C[N+](C)(C)CCCC[C@@H]1NC(=O)[C@@H]2C[C@H](C(=O)O)[C@H](c3cccc(OCCO)c3)N2C1=O in terms of composite z-score is 0.146

The reported value for COCC(=C=CC[C@@H](O)c1ccccc1OCCO)C[C@@H](O)c1ccccn1 in terms of composite z-score is 0.639

The reported value for COCCOC(=O)N1C(=O)[C@@]2(c3ccccc31)[C@H](c1ccccc1OCCO)N1[C@H](c3ccccc3)[C@H](c3ccccc3)OC(=O)[C@H]1[C@@H]2C(=O)N1CCc2cc(OC)c(OC)cc2C1 in terms of composite z-score is 0.41

The reported value for Cc1ccc(F)cc1S(=O)(=O)N[C@@H]1CCN(C(=O)c2ccc(OC(C)C)cc2)C1 in terms of composite z-score is 0.0062

The reported value for O=[N+]([O-])c1ccc(C[n+]2ccc(-c3ccc(CO)cc3)cc2)o1 in terms of composite z-score is 1.86

The reported value for CC(C)CNC(=O)[C@@]1(c2ccc([N+](=O)[O-])cc2)CC(=O)N(C(C)C)[C@@H]1c1ccc(CO)cc1 in terms of composite z-score is 0.07

The reported value for CCC[C@@H]1C[C@@]1(CCC)[C@@H](NC(=O)c1cccs1)c1ccc(Cl)cc1 in terms of composite z-score is 0.948

The reported value for COc1cccc(C)c1NC(=O)O[C@H]1[C@H](OC(=O)Nc2ccccc2)[C@H](OC(=O)Nc2ccccc2)[C@@H](OC)O[C@@H]1CO in terms of composite z-score is 0.179
